molecular target: Casein kinase II subunit alpha (Homo sapiens, UniProt P68400); test: Inhibition of recombinant full length human His-tagged CK2alpha1 expressed in baculovirus expression system at 11 uM using ser/thr-11 peptide as substrate measured after 1 hr by Z'-Lyte assay relative to control
Sequence (P68400 whole entry, looked up): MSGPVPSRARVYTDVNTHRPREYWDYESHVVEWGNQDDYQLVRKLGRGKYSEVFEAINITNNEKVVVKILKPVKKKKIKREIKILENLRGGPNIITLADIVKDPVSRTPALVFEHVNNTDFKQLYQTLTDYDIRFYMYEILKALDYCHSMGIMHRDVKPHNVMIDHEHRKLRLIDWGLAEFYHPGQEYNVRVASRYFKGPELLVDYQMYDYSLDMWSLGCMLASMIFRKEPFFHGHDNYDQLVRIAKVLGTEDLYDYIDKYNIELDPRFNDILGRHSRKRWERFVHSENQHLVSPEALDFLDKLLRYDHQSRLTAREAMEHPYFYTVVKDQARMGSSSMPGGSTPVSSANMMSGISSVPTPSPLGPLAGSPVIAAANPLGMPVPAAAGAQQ
// inhibition lookup, one value per entry

Solved entries:
CCCN(C(=O)Nc1ccccc1F)C1CCc2nc(NCc3ccc(C(=O)O)cc3)sc2C1 (stereo unspecified) : < 30%
CCCN(C(=O)Nc1ccc(F)cc1)C1CCc2nc(NCc3ccc(C(=O)OC)cc3)sc2C1 (stereo unspecified) : < 30%
O=C(Nc1ccc(C(=O)O)cc1)Nc1nc2c(s1)CC(NC(=O)Nc1ccc(C(=O)O)cc1)CC2 (stereo unspecified) : < 30%
CCCN(C(=O)Nc1cccc(F)c1)C1CCc2nc(NC(=O)Nc3cccc(F)c3)sc2C1 (stereo unspecified) : < 30%
CCCN(C(=O)Nc1cccc(F)c1)C1CCc2nc(NCc3ccc(C(=O)OC)cc3)sc2C1 (stereo unspecified) : < 30%
CCCN(C(=O)Nc1cccc(C(=O)O)c1)C1CCc2nc(NC(=O)Nc3cccc(C(=O)O)c3)sc2C1 (stereo unspecified) : > 30%

Item CCCN(C(=O)Nc1ccccc1F)C1CCc2nc(NC(=O)Nc3ccccc3F)sc2C1 (stereo unspecified) has what recorded inhibition?
< 30%

Value lookup for inhibition; key = O=C(Nc1ccc(C(=O)O)cc1)Nc1nc2c(s1)CC(N1C(=O)c3ccccc3C1=O)CC2 (stereo unspecified)
> 30%

# lookup: inhibition of COc1ccc(NC(=O)Nc2nc3c(s2)CC(NC(=O)Nc2ccc(OC)cc2)CC3)cc1 (stereo unspecified)
< 30%

Fill in the blank: the reported inhibition of O=C(Nc1cccc(F)c1)Nc1nc2c(s1)CC(NC(=O)Nc1cccc(F)c1)CC2 (stereo unspecified) is ____.
< 30%

Record request: inhibition value, item CCCN(C(=O)Nc1ccc(C(=O)OCC)cc1)C1CCc2nc(NCc3ccc(C(=O)OC)cc3)sc2C1 (stereo unspecified)
< 30%

Which inhibition is reported for this molecule? CCCN(C(=O)Nc1ccc(F)cc1)C1CCc2nc(NCc3ccc(C(=O)O)cc3)sc2C1 (stereo unspecified)
< 30%

Request the reported inhibition associated with O=C(Nc1nc2c(s1)CC(NC(=O)Nc1ccccc1F)CC2)Nc1ccccc1F (stereo unspecified)
< 30%

# query: inhibition of entry CCOC(=O)c1ccc(NC(=O)Nc2nc3c(s2)CC(NC(=O)Nc2ccc(C(=O)OCC)cc2)CC3)cc1 (stereo unspecified)
< 30%

Please give the measured inhibition for this molecule: CCOC(=O)c1ccc(NC(=O)Nc2nc3c(s2)CC(N2C(=O)c4ccccc4C2=O)CC3)cc1 (stereo unspecified)
< 30%

Suppose we examine the molecule CCCN(C(=O)Nc1ccccc1F)C1CCc2nc(NCc3ccc(C(=O)OC)cc3)sc2C1 (stereo unspecified) ; what inhibition value has been reported?
< 30%

Give the measured inhibition of CCOC(=O)c1cccc(NC(=O)Nc2nc3c(s2)CC(NC(=O)Nc2cccc(C(=O)OCC)c2)CC3)c1 (stereo unspecified) .
> 30%

Item O=C(Nc1nc2c(s1)CC(N1C(=O)c3ccccc3C1=O)CC2)Nc1ccccc1F (stereo unspecified) has what recorded inhibition?
< 30%

Consider the molecule shown here: O=C(Nc1cccc(C(=O)O)c1)Nc1nc2c(s1)CC(N1C(=O)c3ccccc3C1=O)CC2 (stereo unspecified) What is its recorded inhibition?
> 30%

Find the recorded inhibition belonging to CCCN(C(=O)Nc1ccc(F)cc1)C1CCc2nc(NC(=O)Nc3ccc(F)cc3)sc2C1 (stereo unspecified) and report it.
< 30%

# inhibition lookup, item CCCN(C(=O)Nc1cccc(F)c1)C1CCc2nc(NCc3ccc(C(=O)O)cc3)sc2C1 (stereo unspecified)
< 30%

* * *

Recorded inhibition, one value per entry.
target: Casein kinase II subunit alpha (Homo sapiens); test: Inhibition of recombinant full length human His-tagged CK2alpha1 expressed in baculovirus expression system at 11 uM using ser/thr-11 peptide as substrate measured after 1 hr by Z'-Lyte assay relative to control

Would you please look over these solved cases?
O=C(Nc1ccc(F)cc1)Nc1nc2c(s1)CC(N1C(=O)c3ccccc3C1=O)CC2 (stereo not given) : < 30%
O=C(Nc1cccc(F)c1)Nc1nc2c(s1)CC(N1C(=O)c3ccccc3C1=O)CC2 (stereo not given) : < 30%
CCOC(=O)c1cccc(NC(=O)Nc2nc3c(s2)CC(N2C(=O)c4ccccc4C2=O)CC3)c1 (stereo not given) : > 30%
CCCN(C(=O)Nc1cccc(C(=O)O)c1)C1CCc2nc(NCc3ccc(C(=O)O)cc3)sc2C1 (stereo not given) : > 30%
CCCN(C(=O)Nc1cccc(C(=O)OCC)c1)C1CCc2nc(NC(=O)Nc3cccc(C(=O)OCC)c3)sc2C1 (stereo not given) : < 30%
CCCN(C(=O)Nc1cccc(C(=O)OCC)c1)C1CCc2nc(NCc3ccc(C(=O)OC)cc3)sc2C1 (stereo not given) : > 30%
CCCN(C(=O)Nc1ccc(OC)cc1)C1CCc2nc(NC(=O)Nc3ccc(OC)cc3)sc2C1 (stereo not given) : < 30%
CCCN(C(=O)Nc1ccc(OC)cc1)C1CCc2nc(NCc3ccc(C(=O)OC)cc3)sc2C1 (stereo not given) : < 30%

For the molecule shown here, CCCN(C(=O)Nc1ccc(OC)cc1)C1CCc2nc(NCc3ccc(C(=O)O)cc3)sc2C1 (stereo not given) , give the reported inhibition.
< 30%

Any idea what its inhibition is? The molecule is O=C(Nc1ccc(F)cc1)Nc1nc2c(s1)CC(NC(=O)Nc1ccc(F)cc1)CC2 (stereo not given)
< 30%

Item O=C(Nc1cccc(C(=O)O)c1)Nc1nc2c(s1)CC(NC(=O)Nc1cccc(C(=O)O)c1)CC2 (stereo not given) has what recorded inhibition?
> 30%

Which inhibition is reported for this molecule? CCCN(C(=O)Nc1ccc(C(=O)OCC)cc1)C1CCc2nc(NC(=O)Nc3ccc(C(=O)OCC)cc3)sc2C1 (stereo not given)
< 30%

So what's the measured inhibition for this one? CCCN(C(=O)Nc1ccc(C(=O)O)cc1)C1CCc2nc(NCc3ccc(C(=O)O)cc3)sc2C1 (stereo not given)
< 30%

Quick one: inhibition for CCCN(C(=O)Nc1ccc(C(=O)O)cc1)C1CCc2nc(NC(=O)Nc3ccc(C(=O)O)cc3)sc2C1 (stereo not given) ?
< 30%

Which value of inhibition has been reported for COc1ccc(NC(=O)Nc2nc3c(s2)CC(N2C(=O)c4ccccc4C2=O)CC3)cc1 (stereo not given) in the records?
< 30%
